These data points were gathered from PubChem BioAssay (NCI).

Listed here: items and their measured TGI.
- Test system: OVCAR-4 ovarian
- Assay explanation: NCI tumour cell line growth inhibition, 48 h
Measured attribute: TGI (µM)

compound=CC1=C(C)SC(=C2Sc3c(n(C)c(=O)[nH]c3=O)S2)S1 experimental_system="OVCAR-4 ovarian" operator_symbol=> reported_measurement=100
compound="O=c1[nH]cnc2c(C3OC(CO)C(O)C3O)[nH]nc12 (stereo not given)" experimental_system="OVCAR-4 ovarian" operator_symbol== reported_measurement=48.6
compound=CC[C@H](C)c1occ2c(O)c(C(=O)O)c(=O)cc-2c1C experimental_system="OVCAR-4 ovarian" operator_symbol== reported_measurement=68.2
compound=Oc1c(Br)cc(Br)cc1CN(Cc1cc(Br)cc(Br)c1O)C1CCCCC1 experimental_system="OVCAR-4 ovarian" operator_symbol=> reported_measurement=100
compound="COC(=O)c1cc(NC2OCC(OC(C)=O)C(OC(C)=O)C2OC(C)=O)nc(SC)c1C(=O)OC (stereo not given)" experimental_system="OVCAR-4 ovarian" operator_symbol=> reported_measurement=100
